Origin of values: patent US20260325605A1

Assay: Example 6: Pharmacokinetic characterisation after s.c. administration
Type: in vivo, rat (Sprague Dawley or Wistar)
Conditions: rat, 70 nmol/kg, plasma
Protocol: Sprague Dawley or Wistar rats (males with a body weight of approximately 250-350 g) were given a single subcutaneous (s.c.) injection of each peptide to be tested. Following s.c. administration of the selected peptides (dose 70 nmol/kg, dosing volume either 2 or 5 mL/kg), blood samples were drawn at 15 min, 30 min, 45 min, 60 min, 90 min, 2 h, 3 h, 4 h post-dose. […] Plasma samples were analyzed after solid phase extraction (SPE) by liquid chromatography mass spectrometry (LC-MS/MS). […]
AUCINF: recorded values

[
  {
    "substance": "H-P[Nle]E[Nle]RC(1)SASVEC(2)KQKC(3)LAAIGSIFGKC(1)[Nle]NKKC(2)KC(3)YPR-OH [Peptide 100]",
    "AUCINF": "0.112 µM·h"
  },
  {
    "substance": "H-NMDMRC(1)SASVEC(2)KQKC(3)LKAIGSIFGKC(1)MNKKC(2)KC(3)YPR-OH [Peptide 3]",
    "AUCINF": "0.0839 µM·h"
  },
  {
    "substance": "H-NID[Nle]RC(1)SASVEC(2)KQKC(3)LKAIGSIFGKC(1)[Nle]NKKC(2)KC(3)YPR-OH [Peptide 98]",
    "AUCINF": "0.085 µM·h"
  },
  {
    "substance": "H-NMDMRC(1)SASVEC(2)KQKC(3)LYAIGSIFGKC(1)MNKKC(2)KC(3)YPR-NH2 [Peptide 54]",
    "AUCINF": "0.0311 µM·h"
  },
  {
    "substance": "H-MDMRC(1)SASVEC(2)KQKC(3)LKAIGSIFGKC(1)MNKKC(2)KC(3)YPR-OH [Peptide 6]",
    "AUCINF": "0.0724 µM·h"
  },
  {
    "substance": "H-NMDMRC(1)SASVEC(2)KQKC(3)LAAIGSIFGKC(1)MNKKC(2)KC(3)YPR-NH2 [Peptide 53]",
    "AUCINF": "0.0485 µM·h"
  },
  {
    "substance": "H-NMDMRC(1)SASVEC(2)AQKC(3)LKAIGSIFGKC(1)MNKKC(2)KC(3)YPR-NH2 [Peptide 31]",
    "AUCINF": "0.0467 µM·h"
  }
]

* * *

test system: human peripheral blood mononuclear cells (PBMCs); assay: Example 3a: IL-2 release from anti-CD3 stimulated human PBMCs; format: cell-based; settings: human PBMCs, 5 donors, anti-CD3 0.5 μg/mL, geometric mean, at least 4 replicates, read-out: anti-CD3 PBMC/ IL-2 IC50

[
  {
    "substance": "H-[phosphotyrosyl][8-Amino-3,6-dioxaoctanoyl]RSCIDTIPKSRCTAFQCKHSMKYRLSFCRKTCGTC-NH2 [ShK-186, reference compound]",
    "IC50, nM": 0.07
  },
  {
    "substance": "H-NMDMRC(1)SASVEC(2)KQKC(3)LKAIGSIFGKC(1)[Nle]NKKC(2)KC(3)YPR-NH2 [Peptide 17]",
    "IC50, nM": 0.05
  },
  {
    "substance": "H-NMDMRC(1)SASVEC(2)KQKC(3)LDAIGSIFGKC(1)MNKKC(2)KC(3)YPR-NH2 [Peptide 21]",
    "IC50, nM": 0.1
  },
  {
    "substance": "H-NMDMRC(1)SASVEC(2)KVKC(3)LKAIGSIFGKC(1)MNKKC(2)KC(3)YPR-NH2 [Peptide 18]",
    "IC50, nM": 0.4
  },
  {
    "substance": "H-NMDMRC(1)SASVEC(2)KQKC(3)LKAIGSRFGKC(1)MNKKC(2)KC(3)YPR-NH2 [Peptide 36]",
    "IC50, nM": 0.1
  }
]
